Value source: patent US20260216119A1

experiment: Calculated concentrations based on ventricle and CSF volumes; format: in vivo; details: Beagle, icv or intrathecal; dog, 100 μM/0.5 mL, ventricle volume 2 ml
RECORDED_METRIC: Cmax (µM)

CHEM_SMILES: N#CC(=C(/N)Sc1ccccc1N)/C(C#N)=C(\N)Sc1ccccc1N
RECORDED_METRIC: Cmax
OBSERVED_MEASUREMENT: 25

====

test: Calculated concentrations based on ventricle and CSF volumes; format: in vivo; conditions: Beagle, icv or intrathecal; dog, 200 μM/0.5 mL, ventricle volume 2 ml
RECORDED_METRIC: Cmax (µM)

CHEM_SMILES: N#CC(=C(/N)Sc1ccccc1N)/C(C#N)=C(\N)Sc1ccccc1N
UNIT_DESCRIPTOR: µM
OBSERVED_MEASUREMENT: 50
